Assignment: determine reported ED50 for the given compounds.
# assay-procedure: Antagonism of apomorphine-induced stereotypies
# Format: in vivo
# measurement-parameters: rat, in vivo; ip; apomorphine 0.5 mg/kg sc, 30 min after drug
Provide the reading as a plain figure in mg/kg.

For CCN1CCC[C@H]1CNC(=O)c1cc(S(=O)(=O)CC)c(N)cc1OC [(S)(-)-amisulpride] , what is its reported ED50?
100

// next record CCN1CCCC1CNC(=O)c1cc(S(=O)(=O)CC)c(N)cc1OC (racemic) [(R,S)-amisulpride, reference compound]
115
